Biological target: T1, human 4-1BB on the surface of HEK293 cells (HEK293-Hu4-1BB) (human, UniProt Q07011 24-255)
T1 construct: whole, on cells; also called CD137; cell strain highly expressing human 4-1BB
Test: FACS, HEK293-Hu4-1BB cells
Catalogue of EC50 values

# BINDER, EC50
measured = [
    ("C5_V2-YTIQ linked to human IgG1-Fc (Fc fusion) QVQLVESGGGLVQPGGSLRLSCSASGFTFSSYAMSWVRQAPGKGLEWVSDINSGGQSTFYADSVKGRFTISRDNAKNTLYLQMNSLRAEDTAVYYCAKHPLTYTIATMNDYDYWGQGTQVTVSSEPKSADKTHTCPPCPAPELLGGPSVFLFPPKPKDTLMISRTPEVTCVVVDVEHEDPEVKFNWYVDGVEVHNAKTKPREEQYNSTYRVVSVLTVLHQDWLNGKEYKCKVSSKAFPAPIEKTISKAKGQPREPQVYTLPPSRDELTKNQVSLTCLVKGFYPSDIAVEWESNGQPENNYKTTPPVLDSDGSFFLYSKLTVDKSRWQQGNVFSCSVMHEALHNHYTQKSLSLSPGK", "0.7 nM"),
    ("Urelumab (positive control anti-4-1BB antibody) (antibody, V domains shown) VH: QVQLQQWGAGLLKPSETLSLTCAVYGGSFSGYYWSWIRQSPEKGLEWIGEINHGGYVTYNPSLESRVTISVDTSKNQFSLKLSSVTAADTAVYYCARDYGPGNYDWYFDLWGRGTLVTVSS VL: EIVLTQSPATLSLSPGERATLSCRASQSVSSYLAWYQQKPGQAPRLLIYDASNRATGIPARFSGSGSGTDFTLTISSLEPEDFAVYYCQQRSNWPPALTFGGGTKVEIK", "1.64 nM"),
]

// recorded EC50 for humanized anti-4-1BB nanobody C5_V2 linked to human IgG1-Fc (Fc fusion) QVQLVESGGGLVQPGGSLRLSCSASGFTFSSYAMSWVRQAPGKGLEWVSDINSGGESTFYEDSVKGRFTISRDNAKNTLYLQMNSLRAEDTAVYYCAKHPLTFTIATMNDYDYWGQGTLVTVSSEPKSADKTHTCPPCPAPELLGGPSVFLFPPKPKDTLMISRTPEVTCVVVDVEHEDPEVKFNWYVDGVEVHNAKTKPREEQYNSTYRVVSVLTVLHQDWLNGKEYKCKVSSKAFPAPIEKTISKAKGQPREPQVYTLPPSRDELTKNQVSLTCLVKGFYPSDIAVEWESNGQPENNYKTTPPVLDSDGSFFLYSKLTVDKSRWQQGNVFSCSVMHEALHNHYTQKSLSLSPGK : 0.98 nM
